target: mushroom tyrosinase (Agaricus bisporus); test: Circular dichroism analysis of the secondary structure of mushroom tyrosinase; settings: tyrosinase + as-synthesized compound (0 min plasma), 0.1 mM; enzyme alone 16
Sequence (C7FF04 2-392): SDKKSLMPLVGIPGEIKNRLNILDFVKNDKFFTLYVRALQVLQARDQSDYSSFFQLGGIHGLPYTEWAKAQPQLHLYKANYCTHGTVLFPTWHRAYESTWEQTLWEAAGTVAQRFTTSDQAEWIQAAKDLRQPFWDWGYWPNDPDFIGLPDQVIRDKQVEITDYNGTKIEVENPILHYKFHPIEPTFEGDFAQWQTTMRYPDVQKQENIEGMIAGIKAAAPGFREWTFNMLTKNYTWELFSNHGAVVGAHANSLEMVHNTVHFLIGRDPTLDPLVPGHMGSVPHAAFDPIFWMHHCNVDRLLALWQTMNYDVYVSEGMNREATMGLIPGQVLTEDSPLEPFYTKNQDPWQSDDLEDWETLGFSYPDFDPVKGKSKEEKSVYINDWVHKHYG
measured_quantity: α-helix % of tyrosinase (%)
Numbers only, in %.

Consider the reported α-helix % of tyrosinase for these compounds:
>>> observed("C=CCc1ccc(OC(=O)COC(=O)/C=C/c2ccc(O)cc2)c(OC)c1")
20
>>> observed("C=CCc1ccc(OC(=O)COC(=O)c2ccc(O)cc2)c(OC)c1")
16.0

Respectfully, I request α-helix % of tyrosinase for each entry included below.
1. C=CCc1ccc(OC(=O)COC(=O)/C=C/c2ccc(Cl)cc2)c(OC)c1
2. C=CCc1ccc(OC(=O)COC(=O)c2ccc(O)c(O)c2)c(OC)c1
3. C=CCc1ccc(OC(=O)COC(=O)c2cccc(O)c2)c(OC)c1
4. C=CCc1ccc(OC(=O)COC(=O)c2ccc(O)cc2O)c(OC)c1
5. C=CCc1ccc(OC(=O)COC(=O)c2cc(O)cc(O)c2)c(OC)c1

1: 15; 2: 15; 3: 15; 4: 16; 5: 15

* * *

target: mushroom tyrosinase (Agaricus bisporus, UniProt C7FF04); assay: Mushroom tyrosinase inhibition assay (L-DOPA, dopachrome at 492 nm); type: biochemical; parameters: purchased Sigma Chemical Co. USA; settings: compound after 5 min N2 APPJ plasma treatment; mean ± SD; read-out: Tyrosinase inhibitory activity IC50 (converted)
Sequence (C7FF04 1-392): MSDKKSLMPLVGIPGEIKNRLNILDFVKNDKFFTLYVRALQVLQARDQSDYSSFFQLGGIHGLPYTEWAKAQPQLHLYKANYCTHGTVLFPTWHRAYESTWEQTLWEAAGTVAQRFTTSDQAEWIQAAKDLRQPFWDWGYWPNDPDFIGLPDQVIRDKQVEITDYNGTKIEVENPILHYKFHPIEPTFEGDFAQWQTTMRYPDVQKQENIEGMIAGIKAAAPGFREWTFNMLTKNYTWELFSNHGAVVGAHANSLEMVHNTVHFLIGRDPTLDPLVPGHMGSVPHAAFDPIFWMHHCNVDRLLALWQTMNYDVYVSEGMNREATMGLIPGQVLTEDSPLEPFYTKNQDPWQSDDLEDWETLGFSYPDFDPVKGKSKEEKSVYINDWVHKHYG
measured_quantity: IC50 (µM)
Numbers only, in µM.

>>> observed("C=CCc1ccc(OC(=O)COC(=O)c2ccc(O)c(O)c2)c(OC)c1")
100
>>> observed("C=CCc1ccc(OC(=O)COC(=O)c2cccc(O)c2)c(OC)c1")
58.4
>>> observed("C=CCc1ccc(OC(=O)COC(=O)/C=C/c2ccc(Cl)cc2)c(OC)c1")
103
>>> observed("C=CCc1ccc(OC(=O)COC(=O)c2cc(O)cc(O)c2)c(OC)c1")
201
>>> observed("C=CCc1ccc(OC(=O)COC(=O)c2ccc(O)cc2)c(OC)c1")
67.2

Respectfully, I request IC50 for each entry included below.
1. C=CCc1ccc(OC(=O)COC(=O)/C=C/c2ccc(O)cc2)c(OC)c1
2. C=CCc1ccc(OC(=O)COC(=O)c2ccc(O)cc2O)c(OC)c1

1. 13.6
2. 67

* * *

measured_quantity: melting point

>>> observed("C=CCc1ccc(OC(=O)COC(=O)/C=C/c2ccc(O)cc2)c(OC)c1")
"114 to 116 °C"
>>> observed("C=CCc1ccc(OC(=O)COC(=O)c2ccc(O)cc2)c(OC)c1")
"81 to 83 °C"
>>> observed("C=CCc1ccc(OC(=O)COC(=O)c2cccc(O)c2)c(OC)c1")
"70 to 72 °C"

Respectfully, I request melting point for each entry included below.
1. C=CCc1ccc(OC(=O)COC(=O)/C=C/c2ccc(Cl)cc2)c(OC)c1
2. C=CCc1ccc(OC(=O)COC(=O)c2ccc(O)c(O)c2)c(OC)c1
3. C=CCc1ccc(OC(=O)COC(=O)c2cc(O)cc(O)c2)c(OC)c1
4. C=CCc1ccc(OC(=O)COC(=O)c2ccc(O)cc2O)c(OC)c1

["86 to 88 °C", "148 to 151 °C", "107 to 109 °C", "99 to 101 °C"]

* * *

Biological target: mushroom tyrosinase (Agaricus bisporus, UniProt C7FF04)
Assay: Mushroom tyrosinase inhibition assay (L-DOPA, dopachrome at 492 nm)
Type: biochemical
Set-up: purchased Sigma Chemical Co. USA
Settings: compound after 10 min N2 APPJ plasma treatment; mean ± SD; read-out: Tyrosinase inhibitory activity IC50 (converted)
Procedure: To determine the action of ED and PAED, we checked the mushroom tyrosinase inhibitory activity in a cell-free environment. […] The mushroom tyrosinase was used for in vitro bioassays as described previously with some modifications. […] Subsequently the absorbance of dopachrome was measured at 492 nm using a micro plate reader (OPTI Max, Tunable). […] Each concentration was analyzed in three independent experiments run in triplicate. […]
Please respond with reported IC50 for every item in the list.
Numbers only, in µM.

Consider the reported IC50 for these molecules:
>>> observed("C=CCc1ccc(OC(=O)COC(=O)/C=C/c2ccc(O)cc2)c(OC)c1")
8.14
>>> observed("C=CCc1ccc(OC(=O)COC(=O)c2ccc(O)cc2O)c(OC)c1")
80.9
>>> observed("C=CCc1ccc(OC(=O)COC(=O)c2cccc(O)c2)c(OC)c1")
49.7
>>> observed("C=CCc1ccc(OC(=O)COC(=O)c2ccc(O)cc2)c(OC)c1")
40.9
>>> observed("C=CCc1ccc(OC(=O)COC(=O)c2cc(O)cc(O)c2)c(OC)c1")
156
>>> observed("C=CCc1ccc(OC(=O)COC(=O)/C=C/c2ccc(Cl)cc2)c(OC)c1")
142

Item under review: C=CCc1ccc(OC(=O)COC(=O)c2ccc(O)c(O)c2)c(OC)c1 . Reported IC50? 80.9
